# studySystem: human muscarinic M4 receptor (Homo sapiens, UniProt P08173)
# Construct: expressed in transfected cells
# Sequence (P08173 whole entry): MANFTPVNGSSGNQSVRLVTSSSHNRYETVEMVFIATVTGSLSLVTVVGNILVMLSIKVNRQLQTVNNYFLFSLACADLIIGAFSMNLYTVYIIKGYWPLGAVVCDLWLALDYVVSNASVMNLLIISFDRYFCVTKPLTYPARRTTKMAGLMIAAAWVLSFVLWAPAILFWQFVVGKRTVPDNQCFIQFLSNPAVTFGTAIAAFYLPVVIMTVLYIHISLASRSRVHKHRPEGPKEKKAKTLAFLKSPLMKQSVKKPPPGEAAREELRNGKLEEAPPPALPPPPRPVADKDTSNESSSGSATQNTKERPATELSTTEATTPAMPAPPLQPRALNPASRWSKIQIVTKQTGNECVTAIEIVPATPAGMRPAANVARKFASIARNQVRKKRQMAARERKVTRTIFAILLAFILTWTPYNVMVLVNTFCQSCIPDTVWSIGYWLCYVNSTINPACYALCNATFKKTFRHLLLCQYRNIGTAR
# protocolNotes: Alphascreen Surefire phospho-ERK1/2 functional assay, M4
# Type: cell-based
# conditionDescription: CHO, read-out: % Emax cf. ACh (M4), CHO cells stably expressing human M4; phospho-ERK1/2; relative to ACh
Respond with True for Emax values of 90% and above, False for values below.

molecule | studySystem | category
[2H]C([2H])(C)OC(=O)N1CCC2(CC(N3CCC(N(CC)C(C)=O)CC3)C2)C1 (single isomer, unassigned) [2-38 Isomer 2] | human muscarinic M4 receptor (Homo sapiens, UniProt P08173) | True
CCN(C(C)=O)C1CCN(C2CC3(CCN(C(=O)OC)C3)C2)CC1 (single isomer, unassigned) [2-17 Isomer 1] | human muscarinic M4 receptor (Homo sapiens, UniProt P08173) | False
CCOC(=O)N1CCC2(CC(N3CCC(N(CC)CCF)CC3)C2)C1 (single isomer, unassigned) [2-45 Isomer 2] | human muscarinic M4 receptor (Homo sapiens, UniProt P08173) | False
CCOC(=O)N1CCC2(CC(N3CCC(C(C)(C)N(CC)C(C)=O)CC3)C2)C1 (single isomer, unassigned) [2-64 Isomer 2] | human muscarinic M4 receptor (Homo sapiens, UniProt P08173) | True
CCOC(=O)N1CCC2(CC(N3CCC(N(C(C)=O)C4CCC4)CC3)C2)C1 (single isomer, unassigned) [2-6 Isomer 2] | human muscarinic M4 receptor (Homo sapiens, UniProt P08173) | True
CCOC(=O)N1CCC2(CC(N3CCC(N(CCOC)C4CC4)CC3)C2)C1 (single isomer, unassigned) [2-8 Isomer 2] | human muscarinic M4 receptor (Homo sapiens, UniProt P08173) | False
CCOC(=O)N1CC2(CCC(N3CCC(N(C(C)=O)C4CC4)CC3)C2)C1 (racemic) [3-1 Racemic] | human muscarinic M4 receptor (Homo sapiens, UniProt P08173) | False
CCOC(=O)N1CCC2(CC(N3CCC(OC(C)c4ccccc4)CC3)C2)C1 (single isomer, unassigned) [2-66 Isomer 2] | human muscarinic M4 receptor (Homo sapiens, UniProt P08173) | False
CCOC(=O)N1CCC2(CC(N3CCC(N(CC)CC(F)(F)F)CC3)C2)C1 (single isomer, unassigned) [2-7 Isomer 2] | human muscarinic M4 receptor (Homo sapiens, UniProt P08173) | True
